# target desc: T1, CEACAM1 (Sino Biological) (human, UniProt P13688 35-428, limits assumed)
# T1 construct: may be the same as CEACAM1-HIS; also called hCEACAM1; biotinylated soluble CEACAM1
# T1 sequence: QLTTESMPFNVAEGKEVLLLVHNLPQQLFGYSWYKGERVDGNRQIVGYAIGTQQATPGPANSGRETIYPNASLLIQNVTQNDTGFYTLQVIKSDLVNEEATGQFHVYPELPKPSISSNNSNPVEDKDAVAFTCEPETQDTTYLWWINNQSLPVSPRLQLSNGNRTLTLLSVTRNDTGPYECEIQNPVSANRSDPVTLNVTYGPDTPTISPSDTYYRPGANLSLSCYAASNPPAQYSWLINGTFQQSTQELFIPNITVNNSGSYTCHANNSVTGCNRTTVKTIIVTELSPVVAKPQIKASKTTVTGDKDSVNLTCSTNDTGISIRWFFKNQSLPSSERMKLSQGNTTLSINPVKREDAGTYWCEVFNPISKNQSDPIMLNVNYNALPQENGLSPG
# assay remarks: SPR single-cycle
reported property: fold better than Parent (KD) (fold)
// note: answer is a bare numeric in fold

Illustrative cases are given below, each with its answer.
- He9/L3 (antibody, IgG4, V domains shown, IgG4 S241P, kappa; also called He9 / 3) VH: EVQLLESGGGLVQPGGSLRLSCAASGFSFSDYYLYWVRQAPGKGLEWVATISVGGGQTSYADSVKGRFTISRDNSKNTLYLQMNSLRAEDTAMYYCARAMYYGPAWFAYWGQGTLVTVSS VL: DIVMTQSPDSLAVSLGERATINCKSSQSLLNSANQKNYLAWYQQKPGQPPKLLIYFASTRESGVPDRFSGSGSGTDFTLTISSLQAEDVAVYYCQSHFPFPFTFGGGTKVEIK: 5.85
- He6/L16 (antibody, IgG4, V domains shown, IgG4 S241P, kappa) VH: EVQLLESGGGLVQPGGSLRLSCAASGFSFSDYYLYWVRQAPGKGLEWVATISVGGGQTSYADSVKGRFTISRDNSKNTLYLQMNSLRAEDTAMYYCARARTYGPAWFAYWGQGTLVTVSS VL: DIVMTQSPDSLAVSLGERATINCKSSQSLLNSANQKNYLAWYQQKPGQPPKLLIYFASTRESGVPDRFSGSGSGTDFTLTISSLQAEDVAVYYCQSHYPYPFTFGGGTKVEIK: 2.41

Now, please, on to the next binder.
Asked: Fill in: fold better than Parent (KD) of He17/L3 (antibody, IgG4, V domains shown, IgG4 S241P, kappa) VH: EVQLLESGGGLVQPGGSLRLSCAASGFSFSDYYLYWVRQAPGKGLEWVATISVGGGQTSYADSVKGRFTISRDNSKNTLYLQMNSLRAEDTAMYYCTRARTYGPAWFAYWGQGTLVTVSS VL: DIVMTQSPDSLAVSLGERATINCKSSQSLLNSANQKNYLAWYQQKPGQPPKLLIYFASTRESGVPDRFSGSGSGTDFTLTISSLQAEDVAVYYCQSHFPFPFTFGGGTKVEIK is ___
Given back: 1.68
